- TARGET OF ASSAY: LBD of progesterone receptor-beta (PRβ) fused to DBD of GAL4 (Homo sapiens, UniProt P06401)
- Sequence (P06401 679-913 limits assumed): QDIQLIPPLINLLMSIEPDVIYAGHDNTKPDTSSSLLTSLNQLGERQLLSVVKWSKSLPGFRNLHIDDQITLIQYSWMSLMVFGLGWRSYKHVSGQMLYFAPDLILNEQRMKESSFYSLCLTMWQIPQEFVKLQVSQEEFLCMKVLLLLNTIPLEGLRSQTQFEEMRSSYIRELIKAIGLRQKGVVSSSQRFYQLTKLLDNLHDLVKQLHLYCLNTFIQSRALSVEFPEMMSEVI
- EXPERIMENTAL DETAILS: LBD-expressing reporter assay (GeneBLAzer), PR LBD
- Type: cell-based
- MEASUREMENT CONDITIONS: inhibition of maximal activity attained with agonist; read-out: Steroid Receptor LBD IC50 (μM) PR
Catalogue of IC50 values
Report as a plain number; the unit µM is understood.

Here are 3 compounds together with their reported answers.
COMPOUND | MEASUREMENT KIND | READING
CC(C)(c1ccc(OCc2ocnc2S(C)(=O)=O)cc1)c1cc(Cl)c(OCCCl)c(C#N)c1 [Compound A28] | IC50 | 0.93
CC(C)(c1ccc(OCc2ccnc(NS(C)(=O)=O)n2)cc1)c1cc(Cl)c(OCCCl)c(C#N)c1 [Compound A109] | IC50 | 5.61
CC(C)(c1ccc(OCc2ocnc2S(C)(=O)=O)cc1)c1cc(Cl)c(OCCCl)c(Cl)c1 [Compound A13] | IC50 | 0.97

Looking up CC(C)(c1ccc(OC[C@H](O)CNS(C)(=O)=O)cc1)c1cc(Cl)c(OC[C@H](O)CCl)c(Cl)c1 [X, reference compound] , I see its IC50 listed as 4.96

Looking up CC(C)(c1ccc(OCc2ccnc(NS(C)(=O)=O)n2)cc1)c1cc(Cl)c(OCCCl)c(Cl)c1 [Compound A74] , I see its IC50 listed as 5.41

Looking up CC(C)(c1ccc(OCc2ncc(S(C)(=O)=O)s2)cc1)c1cc(Cl)c(OCCCl)c(C#N)c1 [Compound A93] , I see its IC50 listed as 5.04

Looking up CC(C)(c1ccc(OCc2coc(NS(C)(=O)=O)n2)cc1)c1cc(Cl)c(OCCCl)c(Cl)c1 [Compound A38] , I see its IC50 listed as 5.07
